Tested target: UniProt P03956
Sequence (P03956 100-469): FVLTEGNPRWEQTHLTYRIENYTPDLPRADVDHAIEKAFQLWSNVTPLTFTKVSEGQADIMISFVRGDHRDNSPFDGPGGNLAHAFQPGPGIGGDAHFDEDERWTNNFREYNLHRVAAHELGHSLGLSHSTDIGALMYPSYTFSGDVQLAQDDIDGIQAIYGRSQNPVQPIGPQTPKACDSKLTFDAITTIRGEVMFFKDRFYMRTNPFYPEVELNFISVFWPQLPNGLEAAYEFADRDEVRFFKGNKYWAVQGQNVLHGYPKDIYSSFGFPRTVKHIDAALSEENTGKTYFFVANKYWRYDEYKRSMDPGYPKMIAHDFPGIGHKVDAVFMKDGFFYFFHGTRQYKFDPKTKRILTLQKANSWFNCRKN
Assay method text: In vitro enzyme inhibition assay (fluorescence, thiopeptide substrate), HFC
Format: biochemical

# Compound, IC50, nM
records = [
    ("COC(=O)c1ccc(NC(=O)[C@H](CC(C)C)NC(=O)C(CC(=O)NO)CC(C)C)cc1 (stereo partly shown)", 8.4),
]
